Values of pKi reported for D(3) dopamine receptor (Homo sapiens) appear below.
Numbers only, as −log10 of the molar value.

> print(dat)
                           structure.smiles  endpoint   val
1  COc1ccccc1N1CCN(CCCCOc2ccc(-c3cn4cc(C)ccc4n3)cc2)CC1       pKi  6.84
2  COc1ccccc1N1CCN(CCCOc2ccc(-c3cn4ccccc4n3)cc2)CC1       pKi  8.80
3  Cc1ccc2nc(-c3ccc(OCCCN4CCN(c5cccc(Cl)c5Cl)CC4)cc3)cn2c1       pKi  7.54

Hey, quick one: what's pKi for each of these?
1. Cc1ccn2cc(-c3ccc(OCCCCN4CCN(c5cccc(Cl)c5Cl)CC4)cc3)nc2c1
2. COc1ccccc1N1CCN(CCCOc2ccc(-c3cn4cccc(C)c4n3)cc2)CC1

OUTPUT:
[7.22, 7.30]

---

Target: D(3) dopamine receptor (Homo sapiens, UniProt P35462)
Sequence (P35462 whole entry): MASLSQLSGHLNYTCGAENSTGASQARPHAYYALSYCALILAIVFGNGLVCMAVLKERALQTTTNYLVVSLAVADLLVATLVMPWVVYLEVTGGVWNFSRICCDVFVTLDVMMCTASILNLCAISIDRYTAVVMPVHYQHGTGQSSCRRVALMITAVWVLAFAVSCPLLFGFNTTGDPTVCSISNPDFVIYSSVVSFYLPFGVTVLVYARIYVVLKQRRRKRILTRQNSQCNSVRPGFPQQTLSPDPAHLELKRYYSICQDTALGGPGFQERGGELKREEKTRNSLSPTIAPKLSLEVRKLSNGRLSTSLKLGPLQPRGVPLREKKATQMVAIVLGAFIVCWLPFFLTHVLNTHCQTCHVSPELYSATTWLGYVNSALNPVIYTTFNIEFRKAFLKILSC
pKi: −log10 of the molar value.
Lab note: anything with pKi at or over 7 counts as criterion met; the rest go in criterion not met.

Record excerpt, results attached:
> print(dat)
                           structure.smiles   class.assignment
1  COc1ccccc1N1CCN(CCCCOc2ccc(-c3cn4ccccc4n3)cc2)CC1      criterion met
2  Cc1cccn2cc(-c3ccc(OCCCCN4CCN(c5cccc(Cl)c5Cl)CC4)cc3)nc12      criterion met
3  COc1ccccc1N1CCN(CCCOc2ccc(-c3cn4cc(C)ccc4n3)cc2)CC1  criterion not met
4  COc1ccccc1N1CCN(CCCCOc2ccc(-c3cn4ccc(C)cc4n3)cc2)CC1      criterion met

INPUT: Hello, I need to know if Cc1ccc2nc(-c3ccc(OCCCCN4CCN(c5cccc(Cl)c5Cl)CC4)cc3)cn2c1 has measured pKi not below 7. Thanks!
OUTPUT: criterion met

---

Values of Ki reported for D(2) dopamine receptor (Homo sapiens, UniProt P14416) appear below.
Numbers only, in nM.

Solved cases below.
> print(dat)
                           structure.smiles  endpoint  val
1  Clc1cccc(N2CCN(CCCCOc3ccc(-c4cn5ccccc5n4)cc3)CC2)c1Cl        Ki   68
2  COc1ccccc1N1CCN(CCCOc2ccc(-c3cn4ccc(C)cc4n3)cc2)CC1        Ki   78
3  Clc1cccc(N2CCN(CCCOc3ccc(-c4cn5ccccc5n4)cc3)CC2)c1Cl        Ki   44

Hey, quick one: what's Ki for each of these?
1. COc1ccccc1N1CCN(CCCCOc2ccc(-c3cn4cccc(C)c4n3)cc2)CC1
2. COc1ccccc1N1CCN(CCCOc2ccc(-c3cn4ccccc4n3)cc2)CC1
3. Cc1cccn2cc(-c3ccc(OCCCN4CCN(c5cccc(Cl)c5Cl)CC4)cc3)nc12
4. COc1ccccc1N1CCN(CCCCOc2ccc(-c3cn4ccccc4n3)cc2)CC1
5. COc1ccccc1N1CCN(CCCCOc2ccc(-c3cn4cc(C)ccc4n3)cc2)CC1
6. COc1ccccc1N1CCN(CCCOc2ccc(-c3cn4cc(C)ccc4n3)cc2)CC1

OUTPUT:
159
49
125
179
47
78

INPUT: Please report the recorded Ki for Cc1ccn2cc(-c3ccc(OCCCN4CCN(c5cccc(Cl)c5Cl)CC4)cc3)nc2c1 .
OUTPUT: 83

Provenance of the data: ChEMBL document CHEMBL1148812
